Provide the reported IC50 of each item.
- experimentalTarget: COX-2 (Homo sapiens)
- Sequence (P35354 18-604): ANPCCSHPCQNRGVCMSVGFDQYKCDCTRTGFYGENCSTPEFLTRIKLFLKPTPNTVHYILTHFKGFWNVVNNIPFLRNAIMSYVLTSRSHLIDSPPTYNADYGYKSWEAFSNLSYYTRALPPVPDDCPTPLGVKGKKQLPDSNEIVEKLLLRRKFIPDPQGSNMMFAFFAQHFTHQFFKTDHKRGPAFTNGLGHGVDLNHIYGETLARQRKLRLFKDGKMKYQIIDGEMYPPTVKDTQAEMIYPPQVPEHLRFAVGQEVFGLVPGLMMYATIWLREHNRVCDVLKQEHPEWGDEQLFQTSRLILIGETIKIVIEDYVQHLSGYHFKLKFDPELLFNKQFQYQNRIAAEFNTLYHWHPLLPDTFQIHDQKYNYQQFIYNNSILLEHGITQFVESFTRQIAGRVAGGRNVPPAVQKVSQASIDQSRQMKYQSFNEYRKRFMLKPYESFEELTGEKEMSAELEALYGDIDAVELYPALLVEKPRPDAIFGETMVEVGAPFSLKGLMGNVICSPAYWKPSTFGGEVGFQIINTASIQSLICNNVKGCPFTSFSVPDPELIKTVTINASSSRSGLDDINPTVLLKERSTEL
Output spec: scalar in µM, unitless text.

Request: Find the recorded IC50 belonging to COC(=O)[C@H](O)CC(=O)OCCc1ccc(O)c(O)c1 (stereo in doubt) [MMBHTE, methyl malate-β-hydroxytyrosol ester] and report it.
Result: 81.6

Request: I'd like to know its IC50. The compound in question is "C/C=C(/C=O)[C@@H](CC=O)CC(=O)OCCc1ccc(O)cc1"
Result: 352
